The measurements presented in this section are drawn from ChEMBL document CHEMBL1765049.

experiment: Selectivity index, ratio of TC50 for african green monkey Vero cells to IC50 for Coxsackievirus A16; assay type: toxicity, cell-based; details: read-out: Selectivity Index
quantity.name: selectivity ratio
Numbers only.

COc1ccc(-c2nc3c(C(=O)Nc4c[nH]cn4)cccc3[nH]2)cc1OC
3
COc1ccc(-c2nc3c(C(=O)Nc4nc5ccccc5[nH]4)cccc3[nH]2)cc1OC
5.2
COc1ccc(-c2nc3c(C(=O)Nc4cnccn4)cccc3[nH]2)cc1OC
3
COc1ccc(-c2nc3c(C(=O)N[C@H](CO)[C@H](O)c4ccc([N+](=O)[O-])cc4)cccc3[nH]2)c(OC)c1OC
2.1
COc1ccc(-c2nc3c(C(=O)Nc4nc(C#N)c(C#N)[nH]4)cccc3[nH]2)cc1OC
4.3
COc1ccc(-c2nc3c(C(=O)NCCCO)cccc3[nH]2)c(OC)c1OC
2.1

I have 3 molecules here; please give me selectivity ratio for each one.
1. COc1ccc(-c2nc3c(C(=O)N[C@H](CO)[C@H](O)c4ccc([N+](=O)[O-])cc4)cccc3[nH]2)cc1OC
2. COc1ccc(-c2nc3c(C(=O)Nc4ccccc4F)cccc3[nH]2)c(OC)c1OC
3. COc1ccc(-c2nc3c(C(=O)Nc4ncccc4O)cccc3[nH]2)cc1OC

[out]
[1.7, 3, 5.2]

* * *

Assignment: determine reported selectivity ratio for the given compounds.
assay: Selectivity index, ratio of TC50 for african green monkey Vero cells to IC50 for Human enterovirus 71; assay type: toxicity, cell-based; conditions: read-out: Selectivity Index
Give bare numbers.

I have 6 compounds here; please give me selectivity ratio for each one.
1. CCC(CC)NC(=O)c1cccc2[nH]c(-c3ccc(OC)c(OC)c3)nc12
2. CCC(CC)NC(=O)c1cccc2[nH]c(-c3ccc(OC)c(OC)c3OC)nc12
3. COc1ccc(-c2nc3c(C(=O)NCCCO)cccc3[nH]2)cc1OC
4. COc1ccc(-c2nc3c(C(=O)N[C@H](CO)[C@H](O)c4ccc([N+](=O)[O-])cc4)cccc3[nH]2)c(OC)c1OC
5. COc1ccc(-c2nc3c(C(=O)NCCCO)cccc3[nH]2)c(OC)c1OC
6. O=C(N[C@H](CO)[C@H](O)c1ccc([N+](=O)[O-])cc1)c1cccc2[nH]c(-c3ccccn3)nc12

[out]
1. 3
2. 1.73
3. 2.7
4. 2.7
5. 2.7
6. 328

I have 3 compounds here; please give me selectivity ratio for each one.
1. COc1ccc(-c2nc3c(C(=O)Nc4cnc(Cl)cn4)cccc3[nH]2)c(OC)c1OC
2. COc1ccc(-c2nc3c(C(=O)Nc4nc5ccccc5[nH]4)cccc3[nH]2)c(OC)c1OC
3. COc1ccc(-c2nc3c(C(=O)Nc4cnc(Cl)cn4)cccc3[nH]2)cc1OC

[out]
3.9
1.7
4.3

* * *

experiment: Selectivity index, ratio of TC50 for african green monkey Vero cells to IC50 for Coxsackievirus B6; format: toxicity, cell-based; conditions: read-out: Selectivity Index
quantity.name: selectivity ratio

COc1ccc(-c2nc3c(C(=O)Nc4cnc(Cl)cn4)cccc3[nH]2)c(OC)c1OC
3.9
CCC(CC)NC(=O)c1cccc2[nH]c(-c3ccc(OC)c(OC)c3OC)nc12
1.7
COc1ccc(-c2nc3c(C(=O)NCCCO)cccc3[nH]2)c(OC)c1OC
2.7
COc1ccc(-c2nc3c(C(=O)Nc4cnc(Cl)cn4)cccc3[nH]2)cc1OC
4.3
COc1ccc(-c2nc3c(C(=O)Nc4nc5ccccc5[nH]4)cccc3[nH]2)c(OC)c1OC
1.7

I have 3 compounds here; please give me selectivity ratio for each one.
1. COc1ccc(-c2nc3c(C(=O)N[C@H](CO)[C@H](O)c4ccc([N+](=O)[O-])cc4)cccc3[nH]2)c(OC)c1OC
2. COc1ccc(-c2nc3c(C(=O)NCCCO)cccc3[nH]2)cc1OC
3. CCC(CC)NC(=O)c1cccc2[nH]c(-c3ccc(OC)c(OC)c3)nc12

[out]
[2.1, 3.6, 3]

* * *

assay: Selectivity index, ratio of TC50 for african green monkey Vero cells to IC50 for Coxsackievirus B3; assay type: toxicity, cell-based; settings: read-out: Selectivity Index
Assignment: determine reported selectivity ratio for the given molecules.

C[C@@H](NC(=O)c1cccc2[nH]c(-c3ccc([N+](=O)[O-])o3)nc12)[C@H](O)c1ccc(Cl)cc1
3
NC(=O)c1cccc2[nH]c(-c3cccnc3)nc12
3

Now for another entry.
Lookup result for O=C(Nc1ccccc1F)c1cccc2[nH]c(-c3ccc([N+](=O)[O-])o3)nc12 ; measured selectivity ratio: 3

* * *

Assignment: determine reported CC50 for the given compounds.
assay: Cytotoxicity against african green monkey Vero cells; assay type: cell-based; conditions: chlorocebus sabaeus, Vero cells; read-out: TC50 (the source's name)
Put down the number, then write its unit next to it.

The examples below pair each entry with its known result.
COc1ccc(-c2nc3c(C(=O)Nc4ncccc4O)cccc3[nH]2)cc1OC
164 µM
O=C(Nc1ccccc1F)c1cccc2[nH]c(-c3ccco3)nc12
25 µM
O=C(N[C@H](CO)[C@H](O)c1ccc([N+](=O)[O-])cc1)c1cccc2[nH]c(-c3cccnc3)nc12
148 µM

I have 7 compounds here; please give me CC50 for each one.
1. CCC(CC)NC(=O)c1cccc2[nH]c(-c3ccc(OC)c(OC)c3)nc12
2. COc1ccc(-c2nc3c(C(=O)Nc4nc5ccccc5[nH]4)cccc3[nH]2)c(OC)c1OC
3. O=C(Nc1ccccc1)c1cccc2[nH]c(-c3cccnc3)nc12
4. O=C(NCCO)c1cccc2[nH]c(-c3ccncc3)nc12
5. O=C(Nc1ccccc1)c1cccc2[nH]c(-c3ccncc3)nc12
6. O=C(N[C@H](CO)[C@H](O)c1ccc([N+](=O)[O-])cc1)c1cccc2[nH]c(-c3ccccn3)nc12
7. NC(=O)c1cccc2[nH]c(-c3cccnc3)nc12

[out]
["2.23 µM", "29 µM", "34.2 µM", "498 µM", "49.8 µM", "1330 µM", "77.7 µM"]

* * *

assay: Selectivity index, ratio of TC50 for african green monkey Vero cells to IC50 for Coxsackievirus B3; type: toxicity, cell-based; conditions: read-out: Selectivity Index
Assignment: determine reported selectivity ratio for the given compounds.
Give bare numbers.

COc1ccc(-c2nc3c(C(=O)Nc4ccccc4F)cccc3[nH]2)cc1OC
7
O=C(N[C@H](CO)[C@H](O)c1ccc([N+](=O)[O-])cc1)c1cccc2[nH]c(-c3ccncc3)nc12
4.1
O=C(Nc1ccccc1)c1cccc2[nH]c(-c3ccncc3)nc12
4
O=C(Nc1ccccc1F)c1cccc2[nH]c(-c3ccco3)nc12
7.5
COc1ccc(-c2nc3c(C(=O)Nc4ccccc4F)cccc3[nH]2)c(OC)c1OC
3.9

I have 3 compounds here; please give me selectivity ratio for each one.
1. O=C(Nc1ccccc1F)c1cccc2[nH]c(-c3ccccn3)nc12
2. O=C(NCCO)c1cccc2[nH]c(-c3ccccn3)nc12
3. O=C(N[C@H](CO)[C@H](O)c1ccc([N+](=O)[O-])cc1)c1cccc2[nH]c(-c3ccc([N+](=O)[O-])o3)nc12

[out]
1. 28.4
2. 4.3
3. 3

* * *

assay: Cytotoxicity against african green monkey Vero cells; type: cell-based; details: chlorocebus sabaeus, Vero cells; read-out: TC50 (the source's name)
quantity.name: log10(CC50) (log10 of the value in µM)
Give log10 of CC50, with CC50 taken in µM.

The examples below pair each entry with its known result.
COc1ccc(-c2nc3c(C(=O)N[C@H](CO)[C@H](O)c4ccc([N+](=O)[O-])cc4)cccc3[nH]2)c(OC)c1OC
0.99
NC(=O)c1cccc2[nH]c(-c3ccccn3)nc12
2.35
Cc1csc(NC(=O)c2cccc3[nH]c(-c4cccnc4)nc23)n1
2.05
COc1ccc(-c2nc3c(C(=O)N[C@H](CO)[C@H](O)c4ccc([N+](=O)[O-])cc4)cccc3[nH]2)cc1OC
1.16
COc1ccc(-c2nc3c(C(=O)Nc4cnccn4)cccc3[nH]2)cc1OC
1.99

I have 3 compounds here; please give me log10(CC50) for each one.
1. O=C(Nc1ccccc1F)c1cccc2[nH]c(-c3ccc([N+](=O)[O-])o3)nc12
2. COc1ccc(-c2nc3c(C(=O)Nc4nc5ccccc5[nH]4)cccc3[nH]2)cc1OC
3. O=C(NCCO)c1cccc2[nH]c(-c3cccnc3)nc12

[out]
[1.88, 1.71, 2.83]

I have 2 compounds here; please give me log10(CC50) for each one.
1. NC(=O)c1ncn([C@@H]2O[C@H](CO)[C@@H](O)[C@H]2O)n1
2. COc1ccc(-c2nc3c(C(=O)Nc4nc(C#N)c(C#N)[nH]4)cccc3[nH]2)cc1OC

[out]
1: 3.91; 2: 1.63

* * *

test: Selectivity index, ratio of TC50 for african green monkey Vero cells to IC50 for Coxsackievirus B3; type: toxicity, cell-based; settings: read-out: Selectivity Index
Assignment: determine reported selectivity ratio for the given molecules.
Numbers only.

I have 2 molecules here; please give me selectivity ratio for each one.
1. NC(=O)c1cccc2[nH]c(-c3ccccn3)nc12
2. COc1ccc(-c2nc3c(C(=O)Nc4nc5ccccc5[nH]4)cccc3[nH]2)c(OC)c1OC

[out]
1: 7.3; 2: 1.7

I have 3 molecules here; please give me selectivity ratio for each one.
1. O=C(Nc1ccccc1)c1cccc2[nH]c(-c3cccnc3)nc12
2. Cc1csc(NC(=O)c2cccc3[nH]c(-c4cccnc4)nc23)n1
3. O=C(N[C@H](CO)[C@H](O)c1ccc([N+](=O)[O-])cc1)c1cccc2[nH]c(-c3cccnc3)nc12

[out]
9.2
6.8
5.2
